Tgt: KRAS G12S (Homo sapiens (Human), UniProt P01116+P62937, G12S)
Sequence (P01116 other isoform, or with tags, fused parts or gaps G12S, one chain of several): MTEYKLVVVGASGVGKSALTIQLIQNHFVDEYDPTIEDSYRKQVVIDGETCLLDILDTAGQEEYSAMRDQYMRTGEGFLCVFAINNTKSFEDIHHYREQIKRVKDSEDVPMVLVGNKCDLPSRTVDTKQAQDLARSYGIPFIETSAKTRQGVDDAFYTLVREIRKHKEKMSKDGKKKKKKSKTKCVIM
Method: Ras-Raf disruption/FRET/MOA assay (BRAF RBD, Cyclophilin A)
Assay type: biochemical
Study Conditions: read-out: KRAS G12S FRET IC50
Listed below: IC50 values for each entry.

- Molecule: "CCn1c(-c2cccnc2[C@H](C)OC)c2c3cc(ccc31)-c1csc(n1)C[C@H](NC(=O)[C@H](C(C)C)N(C)C(=O)N1CC[C@H](O)C1)C(=O)N1CCC[C@H](N1)C(=O)OCC(C)(C)C2"
  IC50: "0.1 to 1 µM"
- Molecule: "CCn1c(-c2cccnc2[C@H](C)OC)c2c3cc(ccc31)-c1cc(O)cc(c1)C[C@H](NS(=O)(=O)c1cn(C)c(C)n1)C(=O)N1CCC[C@H](N1)C(=O)OCC(C)(C)C2"
  IC50: "> 10 µM"
- Molecule: "CCn1c(-c2cccnc2[C@H](C)OC)c2c3cc(ccc31)-c1cc(O)cc(c1)C[C@H](NS(=O)(=O)C1CS(=O)(=O)C1)C(=O)N1CCC[C@H](N1)C(=O)OCC(C)(C)C2"
  IC50: "> 10 µM"

---

Tgt: NRAS G12C (Homo sapiens (Human), UniProt P01111+P62937, G12C)
Sequence (P01111 whole entry G12C): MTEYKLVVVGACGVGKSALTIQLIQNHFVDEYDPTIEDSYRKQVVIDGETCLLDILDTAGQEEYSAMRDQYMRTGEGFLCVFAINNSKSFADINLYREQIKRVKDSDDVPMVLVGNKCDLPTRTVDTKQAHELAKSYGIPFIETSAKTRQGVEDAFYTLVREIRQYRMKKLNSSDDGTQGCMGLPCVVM
Sequence (P62937 whole entry): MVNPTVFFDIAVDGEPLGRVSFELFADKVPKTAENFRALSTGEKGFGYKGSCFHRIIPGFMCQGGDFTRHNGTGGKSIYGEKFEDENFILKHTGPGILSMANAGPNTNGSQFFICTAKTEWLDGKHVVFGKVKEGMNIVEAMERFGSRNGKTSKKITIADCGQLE
Method: Ras-Raf disruption/FRET/MOA assay (BRAF RBD, Cyclophilin A)
Format: biochemical
Study Conditions: read-out: NRAS G12C FRET data IC50
Quantity: IC50

- Compound: "CCn1c(-c2cnccc2COC)c2c3cc(ccc31)-c1cc(O)cc(c1)C[C@H](NC(=O)[C@@H](NC(=O)c1ncco1)C(C)C)C(=O)N1CCC[C@H](N1)C(=O)OCC(C)(C)C2"
  Test Value: "1000 to 10000 nM"
- Compound: "CCn1c(-c2cccnc2[C@H](C)OC)c2c3cc(ccc31)-c1cc(O)cc(c1)C[C@H](NC(=O)C1CCC3C1C3(F)F)C(=O)N1CCC[C@H](N1)C(=O)OCC(C)(C)C2 (some centres unmarked)"
  Test Value: "1000 to 10000 nM"
- Compound: "CCn1c(-c2cccnc2[C@H](C)OC)c2c3cc(ccc31)-c1csc(n1)C[C@H](NC(=O)[C@H](C(C)C)N(C)C(=O)[C@@H]1OCC[C@@H]1c1ccccc1)C(=O)N1CCC[C@H](N1)C(=O)OCC(C)(C)C2"
  Test Value: "100 to 1000 nM"
- Compound: "CCn1c(-c2cccnc2[C@H](C)OC)c2c3cc(ccc31)-c1csc(n1)C[C@H](NC(=O)[C@H](C(C)C)N(C)C(=O)N1CC(Cc3cnn(C)c3)C1)C(=O)N1CCC[C@H](N1)C(=O)OCC(C)(C)C2"
  Test Value: "10 to 100 nM"
- Compound: "CCn1c(-c2cccnc2[C@H](C)OC)c2c3cc(ccc31)-c1cc(O)cc(c1)C[C@H](NC(=O)[C@H](C(C)C)N(C)C(=O)[C@H]1CCC(=O)O1)C(=O)N1CCC[C@H](N1)C(=O)OCC(C)(C)C2"
  Test Value: "10 to 100 nM"
- Compound: "CCn1c(-c2cccnc2[C@H](C)OC)c2c3cc(ccc31)-c1csc(n1)C[C@H](NC(=O)[C@H](C(C)C)N(C)C(=O)N1CCN(C(=O)[C@@H]3CCCN3C)CC1)C(=O)N1CCC[C@H](N1)C(=O)OCC(C)(C)C2"
  Test Value: "10 to 100 nM"
- Compound: "CCn1c(-c2cccnc2[C@H](C)OC)c2c3cc(ccc31)-c1csc(n1)C[C@H](NC(=O)[C@H](C(C)C)N(C)C(=O)N1CC[C@@H]1CN)C(=O)N1CCC[C@H](N1)C(=O)OCC(C)(C)C2"
  Test Value: "10 to 100 nM"
- Compound: "CCn1c(-c2cccnc2[C@H](C)OC)c2c3cc(ccc31)-c1cc(O)cc(c1)C[C@H](NC(=O)[C@H](C(C)C)N(C)C(=O)C1CC1)C(=O)N1CCC[C@H](N1)C(=O)OCC(C)(C)C2"
  Test Value: "10 to 100 nM"
- Compound: "CCn1c(-c2cccnc2[C@H](C)OC)c2c3cc(ccc31)-c1cc(O)cc(c1)C[C@H](NS(=O)(=O)C1CS(=O)(=O)C1)C(=O)N1CCC[C@H](N1)C(=O)OCC(C)(C)C2"
  Test Value: "> 10000 nM"
- Compound: "CCn1c(-c2cccnc2[C@H](C)OC)c2c3cc(ccc31)-c1csc(n1)C[C@H](NC(=O)[C@H](C(C)C)N(C)C(=O)N1CCS(=O)(=O)CC1)C(=O)N1CCC[C@H](N1)C(=O)OCC(C)(C)C2"
  Test Value: "10 to 100 nM"
- Compound: "CCn1c(-c2cccnc2[C@H](C)OC)c2c3cc(ccc31)-c1cc(O)cc(c1)C[C@H](NC(=O)[C@H](C(C)C)N(C)C(=O)[C@H]1CCN(C(=O)[C@@]3(C)CCCN3C)C1)C(=O)N1CCC[C@H](N1)C(=O)OCC(C)(C)C2"
  Test Value: "10 to 100 nM"
